System: LOX IMVI melanoma
protocol.notes: NCI-60 one-dose screen, 48 h (100 = growth as untreated, 0 = no growth, -100 = all killed)
study.conditions: 10 µM unless noted
About 83,000 compounds went through this panel and 20% of them were active in at least one assay; those are over-represented in the sample as a whole.
Listed here: items and their measured growth.
measured.metric: growth (%)

compound	measured.metric	display.unit	endpoint.result
COc1ccc(S(=O)(=O)NCCCNc2nccc(-n3ccc4cccnc43)n2)cc1	growth	%	90.8
Cc1nc2c3c(ncn2n1)Oc1c(c(=O)[nH]c2ccccc12)C3c1ccc(Cl)cc1 (stereo not given)	growth	%	91.1
COc1cccc(-c2cc3c(O)cc(C#N)cc3[nH]2)c1	growth	%	92.4
CCOC(=O)C1C(=O)C=C(c2ccc(OC)cc2)CC1c1sc(N(C)Cc2ccccc2)nc1Cl (stereo not given)	growth	%	92.1
CCCCOc1ccc(/C=C2/SC(N3CCOCC3)=NC2=O)cc1OCC	growth	%	89.1

---

Tested on: T-47D breast
protocol.notes: NCI-60 one-dose screen, 48 h (100 = growth as untreated, 0 = no growth, -100 = all killed)
study.conditions: 10 µM unless noted
Compounds without any hit were thinned out: in the full panel of roughly 83,000, 20% have a hit.
measured.metric: growth (%)

compound	measured.metric	endpoint.result
O=[N+]([O-])c1ccc(-c2cn(-c3ccccc3)c(-c3ccccc3)n2)cc1	growth	65.9
COc1ccc(-c2ccc(C)n2-c2ccc(-c3nc4cc(Cl)ccc4s3)cc2)cc1	growth	66.8
CN(C)CC(C(=O)c1ccccc1)c1ccccc1 (stereo not drawn)	growth	66.6
COc1ccc(/C=C(\C#N)c2cc(OC)c3c(c2)OCO3)cc1	growth	62.3
CC1=NC2=CC=CC3=NC(C(Cl)(Cl)Cl)=NC(=N1)N23	growth	61.4
N#Cc1c(-c2ccccc2)nc(SCC(=O)N2CCN(c3ccccc3)CC2)[nH]c1=O	growth	99.4
COc1cc2c(cc1OCCCCCn1c3ccccc3c3ccccc31)N=C[C@@H]1CCCN1C2=O	growth	-34.1
COc1ccc(-c2cn(-c3cccc(C(=O)/C=C/c4cc(OC)c(OC)c(OC)c4)c3)c(=O)[nH]2)cc1OC	growth	62.9

---

Test system: HCT-116 colon
protocol.notes: NCI-60 one-dose screen, 48 h (100 = growth as untreated, 0 = no growth, -100 = all killed)
study.conditions: 10 µM unless noted
This is part of a sample that, as a whole, favours compounds with a hit. Of some 83,000 tested, about 20% had one in any assay.
Listed here: items and their measured growth.
measured.metric: growth (%)

molecule	measured.metric	endpoint.result
C=C1CCC2C3(C)COC(c4ccccc4)OC3CCC2(C)C1/C=C/C1=CCOC1=O (stereo not given)	growth	8
COc1ccc(-c2c(N)n[nH]c2-c2cc3c(c(OC)c2OC)OCO3)cc1	growth	94.1
c1coc(CNc2ccnc(Nc3ccc(OCCN4CCCCC4)cc3)n2)c1	growth	68.4
COC(=O)c1cccc2c1N(C)c1c(cccc1C(=O)OC)CC2	growth	104
COc1cc(/C=C/C(=O)c2cccc(-n3cc(-c4cc(OC)c(OC)c(OC)c4)[nH]c3=O)c2)cc(OC)c1OC	growth	-78.3

---

System: HOP-92 NSCLC
protocol.notes: NCI-60 one-dose screen, 48 h (100 = growth as untreated, 0 = no growth, -100 = all killed)
study.conditions: 10 µM unless noted
This is part of a sample that, as a whole, favours compounds with a hit. Of some 83,000 tested, about 20% had one in any assay.
Listed here: items and their measured growth.

molecule	growth [%]
COc1ccc(Nc2[nH]n3c(=O)cc(C)nc3c2C(N)=O)c(OC)c1	73.1
CC1CCC(C)N(C)C1 (stereo not drawn)	84.4
CC(C)(C)OC(=O)NCCc1ccc(N=C=S)cc1	39.4
CN1CCN(Cc2ccc(NC(=O)c3nc4ccc5[nH]ncc5c4c4c3CCC4)cc2C(F)(F)F)CC1	65.5
COc1ccc(C2=Nn3c(nnc3-n3nc(C)cc3C)SC2)cc1	11.2
CCCC(=O)Oc1ccc(/C(=C(\C)c2ccccc2)c2ccc(OCCN(CC)CC)cc2)cc1	57.7
CCN(CC)CCOC(=O)C(c1ccccc1)(c1ccccc1)C(C)C	77.7
O=[N+]([O-])c1ccc(/C=C/C2(CCl)OCCO2)cc1	84.2
CN(CCCCCl)P(=O)(OCc1ccc([N+](=O)[O-])o1)C(F)(F)C[C@H](NC(=O)CNC(=O)c1ccc(N=[N+]=[N-])cc1)C(=O)NCCc1ccc(O)cc1 (stereo partly drawn)	108
Fc1ccc(Nc2ncnc3ccc(-c4cnc5[nH]ccc5c4)cc23)cc1Cl	-5.43
CCOC(=O)c1c(/N=C2\SC(=O)/C(=C\C(=O)OC)N2NC)sc2c1CCN(C(=O)OCC)C2	90.6
Nc1cc2c(cc1C(=O)c1cccc(F)c1)OCCO2	72.9
O=S(=O)(NCCNc1nccc(-c2c(-c3cccc(O)c3)nc3sccn23)n1)c1ccc(F)cc1	92.8
COc1ccc(N=Cc2c(O)ccc3c2oc2cc(Cl)c(O)c(Cl)c23)cc1	88.8
Nc1ccc(C(=O)CSc2nc3ccccc3[nH]2)cc1	116
NC(=O)c1c(NC(=S)Nc2ccc(OC(F)(F)F)cc2)sc2c1CCC1(C2)OCCO1	96.3
COc1ccc(OC)c(C2OC(c3ccc4ccccc4c3O)=NN2C(C)=O)c1 (stereo not drawn)	54.4
Cc1ccc2nc(-c3cc4c([nH]c5ccccc54)c(-c4ccc(F)c(F)c4)n3)[nH]c2c1	99
O=C1CS/C(=N\Nc2cc(=O)[nH]c3ccccc23)N1c1ccccc1	65.1
CC1(c2ccc(Cl)cc2)OC(=O)CC(=O)O1	103
O=C(NNC(=S)Nc1ccccc1)c1cc2ccc1CCc1ccc(cc1)CC2	48.8
CCCCCCCCCCCCCCCCNC(=O)OC(C)C	53
O=C(Nc1cccc(-n2cc(-c3ccncc3)c(-c3ccc(Cl)c(O)c3)n2)c1)Nc1cccc(C(F)(F)F)c1	-17.7
O=C(/C=C/c1cc(-c2ccc3c(c2)OCO3)n[nH]1)c1ccc2c(c1)OCO2	77.7
COc1ccc(Nc2nc(N)nc3c2CCN(Cc2ccc(OC)cc2OC)C3=O)cc1	7.69
CC(=O)Oc1csc(N(C(C)=O)c2cccc(C(F)(F)F)c2)n1	45.7
CC(C)(C)Nc1c(-c2cccs2)nc2ncccn12	98.8
Cc1nc2ncccc2nc1Nc1ccc(S(=O)(=O)Nc2ccccn2)cc1	54.3
CCCCN(CCCC)C(=N)c1ccnc2ccccc12	96.4
COc1cccc(CC(C)=C(c2ccc(OCCN(C)C)cc2)c2ccc(OCCN(C)C)cc2)c1	10.2
COc1ccc(C2=CC(c3cc(OC)c(OC)c(OC)c3)NC(=O)N2)cc1OC (stereo not drawn)	6.24
CCN1CCN(CC(=O)N2c3cccc4cccc(c34)N(C(=O)CN3CCN(CC)CC3)C2c2cn(-c3ccccc3)nc2-c2cccc([N+](=O)[O-])c2)CC1	61.4
COc1cc(NC(N)=NCCC(C)(C)Oc2ccc(C(F)(F)F)cc2)ncc1C#N	-10.6
